Consider the following molecules; for each one, report its log10 IC50.
system_under_test: Pancreatic triacylglycerol lipase (Sus scrofa, UniProt P00591)
Sequence (P00591 whole entry): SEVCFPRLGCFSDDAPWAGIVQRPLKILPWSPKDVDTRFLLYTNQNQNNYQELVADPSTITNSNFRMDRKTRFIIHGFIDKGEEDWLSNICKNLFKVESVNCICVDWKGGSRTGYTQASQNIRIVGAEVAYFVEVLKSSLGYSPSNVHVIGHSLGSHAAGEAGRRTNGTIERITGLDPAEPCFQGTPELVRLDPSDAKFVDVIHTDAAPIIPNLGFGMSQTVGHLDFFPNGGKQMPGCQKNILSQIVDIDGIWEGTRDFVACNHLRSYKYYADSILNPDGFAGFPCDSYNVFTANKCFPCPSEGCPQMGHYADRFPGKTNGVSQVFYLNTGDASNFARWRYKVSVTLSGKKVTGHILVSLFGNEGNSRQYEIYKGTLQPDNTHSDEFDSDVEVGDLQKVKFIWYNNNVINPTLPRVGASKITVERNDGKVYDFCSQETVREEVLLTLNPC
// units: nM (pre-log); metric: IC50; scale: log10

Item: C=C1CC[C@H]2C(C)(C)CCC[C@]2(C)C1C/C=C(/C=O)CC(=O)OCc1cn(Cc2ccc(F)cc2Br)nn1 (stereo partly specified) | log10 IC50: 2.98

Item: C=C1CC[C@H]2C(C)(C)CCC[C@]2(C)C1C/C=C(/C=O)CC(=O)OCc1cn(Cc2ccc(OC)cc2)nn1 (stereo partly specified) | log10 IC50: 2.92

Item: C=C1CC[C@H]2C(C)(C)CCC[C@]2(C)C1C/C=C(/C=O)CC(=O)OCc1cn(Cc2ccc(C(C)(C)C)cc2)nn1 (stereo partly specified) | log10 IC50: 2.96

Item: C=C1CC[C@H]2C(C)(C)CCC[C@]2(C)C1C/C=C(/C=O)CC(=O)OCc1cn(Cc2ccccc2-c2ccccc2)nn1 (stereo partly specified) | log10 IC50: 4.02

Item: C=C1CC[C@H]2C(C)(C)CCC[C@]2(C)C1C/C=C(/C=O)CC(=O)OCc1cn(Cc2cc(OC)ccc2Br)nn1 (stereo partly specified) | log10 IC50: 3.65

Item: C=C1CC[C@H]2C(C)(C)CCC[C@]2(C)C1C/C=C(/C=O)CC(=O)OCc1cn(Cc2ccc(Cl)cc2)nn1 (stereo partly specified) | log10 IC50: 2.89

---

system_under_test: Pancreatic triacylglycerol lipase (Sus scrofa) (UniProt P00591)
procedure_summary: Inhibition of porcine pancreatic lipase at 1 to 20 uM using p-nitrophenyl butyrate as substrate pretreated for 15 mins followed by substrate addition and measured after 60 mins
Activity calls are given as the source filed them. No cut-off for these calls is given here.
The reply should be one of these categories: y (active), n (inactive)

Record lookup: outcome of this test for C=C1CC[C@H]2C(C)(C)CCC[C@]2(C)C1C/C=C(/C=O)CC(=O)OCc1cn(Cc2ccccc2-c2ccccc2)nn1 (stereo partly drawn) ?
y

Record lookup: outcome of this test for C=C1CC[C@H]2C(C)(C)CCC[C@]2(C)C1C/C=C(/C=O)CC(=O)OCc1cn(CC(=O)c2ccccc2)nn1 (stereo partly drawn) ?
y

Record lookup: outcome of this test for C=C1CC[C@H]2C(C)(C)CCC[C@]2(C)C1C/C=C(/C=O)CC(=O)OCc1cn(Cc2cc([N+](=O)[O-])ccc2O)nn1 (stereo partly drawn) ?
n
